FYI, the data here is from PubChem BioAssay.

Assay: stimulators of nuclear beta-catenin in C2C12, primary screen, imaging, WNT3A-conditioned medium, mouse C2C12, NPC library (AID 1117326); further: reference of the scale not given here
Conditions: stimulation, at 2 µM, stronger effect = higher value
Collected nuclear beta-catenin stimulation values appear next to each entry.
ENDPOINT_NAME: nuclear beta-catenin stimulation

MOLECULE: COc1cc(O)c(C(=O)c2ccccc2)cc1S(=O)(=O)O
REPORTED_MEASUREMENT: 0.1%
--
MOLECULE: NC(CO)(CO)CO
REPORTED_MEASUREMENT: 3.7%
--
MOLECULE: CCC(C)(CN(C)C)OC(=O)c1ccccc1 (configuration not stated)
REPORTED_MEASUREMENT: -1.6%
--
MOLECULE: CN1CCCC(CC2c3ccccc3Sc3ccccc32)C1 (configuration not stated)
REPORTED_MEASUREMENT: 1.3%
--
MOLECULE: CN(C)CCN1C(=O)c2ccccc2N(C)c2ccccc21
REPORTED_MEASUREMENT: -0.9%
--
MOLECULE: COc1ccc(Cc2cnc(N)nc2N)cc1OC
REPORTED_MEASUREMENT: -0.6%
--
MOLECULE: Cc1ccc2c(c1)c1c3n2CCNC3CCC1 (configuration not stated)
REPORTED_MEASUREMENT: 2%
--
MOLECULE: CC1=C(C/C=C(\C)CCC[C@H](C)CCC[C@H](C)CCCC(C)C)C(=O)c2ccccc2C1=O
REPORTED_MEASUREMENT: -0.8%
--
MOLECULE: COc1ccc(/C=N/NC(=O)c2ccncc2)cc1OC
REPORTED_MEASUREMENT: 8%
--
MOLECULE: CCc1cccc(CC)c1NC(=O)CN(CC(=O)O)CC(=O)O
REPORTED_MEASUREMENT: 0.2%
--
MOLECULE: CC(S)C(=O)NCC(=O)O (configuration not stated)
REPORTED_MEASUREMENT: 0.7%
--
MOLECULE: Cc1ccc(Nc2nccc(N(C)c3ccc4c(C)n(C)nc4c3)n2)cc1S(N)(=O)=O
REPORTED_MEASUREMENT: 1%
